All values here come from ChEMBL document CHEMBL3286091.

What clearance was measured for each of the following?
Test: Clearance in rat at 40 mg/kg, po and 5 mg/kg, iv by LC-MS/MS analysis
Format: ADME, organism-based
Conditions: in vivo
Write the number in mL/min/kg without appending the unit.

If you can, please state the reported clearance value of N#Cc1ccc2ccc(=O)n(CCN3CCC(NCc4ccc5c(n4)NC(=O)CO5)CC3)c2c1 .
187

If you can, please state the reported clearance value of Cc1ncc(CN[C@@H]2CCN(CCn3c(=O)ccc4ncc(F)cc43)C[C@@H]2F)cc1C#N .
30

If you can, please state the reported clearance value of COc1cc(C#N)c2ccc(=O)n(CCN3CCC(NCc4cnc(C)c(C#N)c4)CC3)c2c1 .
10

If you can, please state the reported clearance value of COc1cnc2ccc(=O)n(CCN3CCC(NCc4cnc(C)c(C#N)c4)CC3)c2c1 .
32

* * *

What logD at 10000 µM was measured for each of the following?
Experiment: Octanol-sodium phosphate buffer partition coefficient, log D of the compound at 10 mM at pH 7.4 by shake-flask method
Format: physicochemical
Returns: the value as a bare number; no unit string appended.

If you can, please state the reported logD at 10000 µM value of Cc1ncc(CNC2CCN(CCn3c(=O)ccc4ncc(F)cc43)CC2)cc1C#N .
0.81

If you can, please state the reported logD at 10000 µM value of COc1ccc2ccc(=O)n(CCN3CCC(NCc4ccc5c(n4)NC(=O)CO5)CC3)c2n1 .
0.8

If you can, please state the reported logD at 10000 µM value of COc1cnc2ccc(=O)n(CCN3CC[C@H](NCc4ccc5c(n4)NC(=O)CO5)[C@H](F)C3)c2c1 .
0.82
